# credit: the supplement of paper PMC9170038

Tested on: MS2 coat protein
Experiment Notes: apparent KD of MS2 coat protein, switch ON state; designed switch direction (-1 OFF switch, 1 ON switch): 1; higher = weaker reporter binding
Measurement Context: FMN input: 0 or 200 uM; Eterna round: R93 (includes R88 designs)
Classification field: enter yes (1) for apparent KD of MS2 coat protein values not below 20 nM, no (0) for values below it.

Inquiry: Threshold query (apparent KD of MS2 coat protein >= 20 nM) on GAUAAACAUGAGGAUCACCCAUGUAGAAAUAUGGGAGGAUAUACGAAGACGAAAGUCAAAGUAGAAGGCCUAAAAG [Mat - Same State 1 - Eli mod - D114]
Reply text: yes (1)

Inquiry: Hi team, for AAAACACAUGAGGAUCACCCAUGUGAAAACAUGGGAGGAUAUGCAUGGAAAACAUGCUAUGCAGAAGGCUCAUGUG [SS1 - 7] , is the recorded apparent KD of MS2 coat protein at or above 20 nM?
Reply text: yes (1)

Inquiry: Could you tell me if the measured apparent KD of MS2 coat protein of AUAAAGAAAAGGCAGGAUAUGUAAACUAAAACAUGAGGAUCACCCAUGUGGGAAAUAAAAUAAAAACAGAAGGGCCAAAAGAAUA [Designing denovo 17] reaches 20 nM or more?
Reply text: no (0)

Inquiry: Hi team, for AAAAAACAUGAGGAUCACCCAUGUAAAAAUAUGGGAGGAUAUGGAAACACGAAAGUGAAACCAGAAGGCUCAAAAG [77%, Mat - Mod of Eli, 17] , is the recorded apparent KD of MS2 coat protein at or above 20 nM?
Reply text: yes (1)

Inquiry: Can AGGAGACAUGAGGAUCACCCAUGUGCACGGUGAAGAGGAUAUGUGCGUGGAGAGACACGGACAGAAGGCUUAAGAA [JR_SameState1_Sub5] be said to have apparent KD of MS2 coat protein at or above 20 nM?
Reply text: yes (1)

Inquiry: Check if apparent KD of MS2 coat protein >= 20 nM (inclusive). Item: GGAAAACAUGAGGAUCACCCAUGUGAAAACGUGGGAGGAUAUCGAUGGAAACCAUACUGUCGAGAAGGCCCAUGUC [EteRNA is fun!]
Reply text: no (0)

* * *

Tested on: MS2 coat protein
Experiment Notes: apparent KD of MS2 coat protein; designed switch direction (-1 OFF switch, 1 ON switch): 1; higher = weaker reporter binding
Measurement Context: input ligand: FMN 200 uM
Rule: apparent KD of MS2 coat protein under 200 nM gives not satisfied, otherwise satisfied.

Inquiry: Is apparent KD of MS2 coat protein at least 200 nM? Consider AAGUAACAUGAGGAUCACCCAUGUGAGGUGAGCGUAGGAUAUCGAGGAGGAAGGGUGGAGCGAGAAGGACGAGAGG [JR_SS1_Sub099] (Eterna round: R96, puzzle: Same State 1)
Reply text: satisfied

Inquiry: Can AAAAUGGGAUUUUACAUGAGGAUCACCCAUGUGGGUAUCACUGAGGAUAUGAGGAUCUUGAAAAAUCAGAAGGCAGAAUUUCAA [AK SSNG3-V2-21] (Eterna round: R96, puzzle: Same State NG 3) be said to have apparent KD of MS2 coat protein at or above 200 nM?
Reply text: satisfied

Inquiry: Check this sequence for apparent KD of MS2 coat protein at or above 200 nM: AUUAUUAAUGCAGGAUAUGAUUAACAUGAGGAUCACCCAUGUGGUGUUGUGAGUAAGGAGAGUGAUCAGAAGGGCAUUUUUGUU [JMF's solution 14] (Eterna round: R96, puzzle: Same State NG 2)
Reply text: satisfied

Inquiry: Form field: apparent KD of MS2 coat protein at least 200 nM? Entry: AGCGAACAGUCCUCAAAGGCAACAUGAGGAUCACCCAUGUCAUAGGAUAUGCUAAAAGCUCAGUAGCAGAAGGAUGGAGGACUG [Edatusbe] (Eterna round: R96, puzzle: Same State NG 3)
Reply text: not satisfied

Inquiry: Check if apparent KD of MS2 coat protein >= 200 nM (inclusive). Item: UAAAGAUCGCGAGGAUAUCGCGAGGAUCACCCGUGAGAAGGCGCAGAGCCGAGGAUCACCCGGCUGAUCCUGAGGAGGAGGUAA (Eterna round: R96, puzzle: Same State NG 1)
Reply text: satisfied

Inquiry: Decide: apparent KD of MS2 coat protein of UAGUGUUUGCGAGGAUAUCGUUUGUUGAAGUUACGAGAAGGCGCUCUAAUUACAUGAGGAUCACCCAUGUCUGUGAUGCAUGAU [JR_SSNG1_Sub070] (Eterna round: R96, puzzle: Same State NG 1) >= 200 nM?
Reply text: not satisfied

Inquiry: Please check the record GCUCGUAUCACAACCGACAUGAGGAUCACCCAUGUAUGUUGGUAGGAUAUCUAUAUUAAGGAUAUAGAGAAGGGCCGAACGAGC [SameState NG3 #13] (Eterna round: R96, puzzle: Same State NG 3) and state if its apparent KD of MS2 coat protein is at or above 200 nM.
Reply text: not satisfied

Inquiry: Could you tell me if the measured apparent KD of MS2 coat protein of GAGGGACAGACCAACAUGAGGAUCACCCAUGUCCUCGCAGGUCAGGAUAUCCGUCCAACAGGCAAGGAGAAGGGACGGUGAACC (Eterna round: R96, puzzle: Same State NG 3) reaches 200 nM or more?
Reply text: satisfied
